- Target Under Test: hFASN enzyme (full length) (Homo sapiens, UniProt P49327)
- Construct: 10 μL hFASN enzyme (full length, 300 ng, purified in house); made in house
- Sequence (P49327 whole entry): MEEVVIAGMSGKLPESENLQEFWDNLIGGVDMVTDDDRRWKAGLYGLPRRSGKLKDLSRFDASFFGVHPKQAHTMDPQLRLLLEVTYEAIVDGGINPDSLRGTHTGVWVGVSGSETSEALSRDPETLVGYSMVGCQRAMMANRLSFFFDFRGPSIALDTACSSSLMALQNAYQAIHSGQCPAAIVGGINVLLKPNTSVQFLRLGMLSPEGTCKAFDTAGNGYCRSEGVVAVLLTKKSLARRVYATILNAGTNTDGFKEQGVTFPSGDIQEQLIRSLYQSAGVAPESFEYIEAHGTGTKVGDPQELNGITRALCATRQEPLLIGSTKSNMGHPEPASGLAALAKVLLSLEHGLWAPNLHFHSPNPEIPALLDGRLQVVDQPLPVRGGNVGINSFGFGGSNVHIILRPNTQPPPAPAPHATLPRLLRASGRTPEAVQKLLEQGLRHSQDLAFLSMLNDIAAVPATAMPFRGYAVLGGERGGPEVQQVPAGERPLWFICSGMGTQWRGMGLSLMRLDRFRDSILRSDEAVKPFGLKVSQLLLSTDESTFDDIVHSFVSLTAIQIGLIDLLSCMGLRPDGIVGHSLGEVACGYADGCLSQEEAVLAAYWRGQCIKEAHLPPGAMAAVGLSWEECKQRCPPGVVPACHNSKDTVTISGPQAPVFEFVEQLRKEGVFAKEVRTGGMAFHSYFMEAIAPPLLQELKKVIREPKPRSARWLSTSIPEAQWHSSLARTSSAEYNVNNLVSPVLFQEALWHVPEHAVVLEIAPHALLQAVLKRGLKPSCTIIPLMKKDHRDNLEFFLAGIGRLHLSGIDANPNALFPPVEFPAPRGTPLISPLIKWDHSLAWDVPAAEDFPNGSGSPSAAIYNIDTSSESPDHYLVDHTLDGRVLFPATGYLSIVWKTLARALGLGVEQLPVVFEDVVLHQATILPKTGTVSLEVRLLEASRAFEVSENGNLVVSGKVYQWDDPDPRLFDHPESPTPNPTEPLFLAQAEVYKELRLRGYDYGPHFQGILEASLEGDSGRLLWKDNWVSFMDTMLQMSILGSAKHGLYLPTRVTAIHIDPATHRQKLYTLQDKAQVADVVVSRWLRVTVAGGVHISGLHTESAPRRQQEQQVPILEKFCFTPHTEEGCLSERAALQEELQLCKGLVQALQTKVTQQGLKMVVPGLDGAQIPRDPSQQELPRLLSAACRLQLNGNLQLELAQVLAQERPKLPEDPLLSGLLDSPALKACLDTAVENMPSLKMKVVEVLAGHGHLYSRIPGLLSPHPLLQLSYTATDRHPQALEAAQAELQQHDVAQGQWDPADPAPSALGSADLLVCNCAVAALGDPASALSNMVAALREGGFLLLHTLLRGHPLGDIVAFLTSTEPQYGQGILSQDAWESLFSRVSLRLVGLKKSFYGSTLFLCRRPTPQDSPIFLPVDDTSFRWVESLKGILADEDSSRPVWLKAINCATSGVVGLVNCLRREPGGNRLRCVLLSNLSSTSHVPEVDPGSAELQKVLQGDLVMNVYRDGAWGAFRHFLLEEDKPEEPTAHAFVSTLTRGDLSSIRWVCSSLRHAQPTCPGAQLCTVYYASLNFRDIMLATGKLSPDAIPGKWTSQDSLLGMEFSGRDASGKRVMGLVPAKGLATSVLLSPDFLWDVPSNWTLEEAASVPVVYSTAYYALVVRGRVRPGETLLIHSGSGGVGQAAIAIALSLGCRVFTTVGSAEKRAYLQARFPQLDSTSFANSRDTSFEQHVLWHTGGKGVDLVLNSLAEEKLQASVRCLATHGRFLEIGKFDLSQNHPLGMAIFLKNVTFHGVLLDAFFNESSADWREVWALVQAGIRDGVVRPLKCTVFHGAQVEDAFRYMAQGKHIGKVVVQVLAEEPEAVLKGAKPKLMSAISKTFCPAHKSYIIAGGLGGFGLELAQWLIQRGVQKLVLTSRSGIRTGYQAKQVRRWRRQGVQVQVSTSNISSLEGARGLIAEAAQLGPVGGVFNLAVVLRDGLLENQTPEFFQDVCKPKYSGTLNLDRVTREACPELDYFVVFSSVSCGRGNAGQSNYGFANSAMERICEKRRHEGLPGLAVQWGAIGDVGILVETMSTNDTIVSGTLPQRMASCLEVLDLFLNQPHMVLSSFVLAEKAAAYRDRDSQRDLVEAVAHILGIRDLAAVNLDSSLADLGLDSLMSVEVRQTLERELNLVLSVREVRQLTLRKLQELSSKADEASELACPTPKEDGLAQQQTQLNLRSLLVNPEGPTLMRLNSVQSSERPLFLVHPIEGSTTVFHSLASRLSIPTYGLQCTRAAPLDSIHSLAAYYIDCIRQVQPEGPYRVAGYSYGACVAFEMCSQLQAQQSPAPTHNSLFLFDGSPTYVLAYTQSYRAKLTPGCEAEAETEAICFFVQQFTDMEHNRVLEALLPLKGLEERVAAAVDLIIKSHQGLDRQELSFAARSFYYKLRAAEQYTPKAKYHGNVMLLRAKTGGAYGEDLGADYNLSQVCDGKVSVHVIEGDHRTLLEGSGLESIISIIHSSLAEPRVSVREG
- Experiment Summary: Fatty Acid Synthase (FASN) Inhibition Scintillation Proximity Assay
- Assay type: biochemical
- Applied Conditions: read-out: FASN % Effect @1E−05M
Hi there, I'd appreciate the recorded inhibition at 10 µM for every entry that follows.
One number for each entry, in %.

Known inhibition at 10 µM results, listed for orientation:
Cc1ccc(C(=O)N2CCC(c3ccc(-c4cnn(C)c4)cc3)CC2)cc1NC(=O)c1ccc(C(C)C)cc1 | 102
Cc1ccc(C(=O)N2CCC(c3ccc(-c4cnn(C)c4)cc3)CC2)cc1NC(=O)C1CCN(C2CCCCC2)CC1 | 112
Cc1ccc(C(=O)N2CCC(c3ccc(-c4cnn(C)c4)cc3)CC2)cc1NC(=O)c1ccc(C(F)(F)F)cc1 | 103
Cc1ccc(C(=O)N2CCC(c3ccc4ncsc4c3)CC2)cc1NC(=O)c1ccc(NC(C)C)nc1 | 74
Cc1ccc(C(=O)N2CCC(c3ccc(-n4ccnc4)cc3)CC2)cc1NC(=O)c1ccc(Cl)nc1 | 106

For every item in the list below, what is its measured inhibition at 10 µM?
1. CCCCCN1CCC(C(=O)Nc2cc(C(=O)N3CCC(c4ccc(-c5cnn(C)c5)cc4)CC3)ccc2C)C1 (stereo not shown)
2. Cc1ccc(C(=O)N2CCC(c3ccc(-c4ccco4)cc3)CC2)cc1NC(=O)c1ccc(NC(C)C)nc1

Found:
107
106
